Where these numbers come from: patent US10913736B2

system: T. brucei; experiment: Growth inhibition assay of T. brucei cell cultures (Alamar Blue, 48 h); format: cell-based; conditions: Trypanosoma brucei; read-out: B) T. brucei EC50
metric-name: pEC50
// scale note: pEC50 = -log10(conc_M); give the bare number

[Q] Dear colleague, I am looking for the recorded pEC50 of the following compound: Clc1cc(Cl)cc(NC[C@H]2CCCN(c3nc4nc(Cl)ccc4[nH]3)C2)c1
[A] 5.56

[Q] Consider next the compound O=c1c(NCc2nc3ccccc3[nH]2)c(NCc2ccc(Cl)cc2Cl)c1=O in the same way.
[A] 5.97

[Q] Consider next the compound CN(CCN(Cc1cc(Cl)cc(Cl)c1)C(=O)CO)c1nc2ccc(Cl)nc2[nH]1 in the same way.
[A] 7.21

[Q] Consider next the compound CC(=O)N(C1CCNc2c(Cl)cc(Cl)cc21)[C@H]1CCCN(c2nc3nc(Cl)ccc3[nH]2)C1 (some centres unmarked) in the same way.
[A] 6.38

[Q] Consider next the compound O=C(NCc1nc2ccccc2[nH]1)OCCc1ccc(Cl)cc1Cl in the same way.
[A] 5.89

[Q] Consider next the compound COC(=O)N(CCCNc1nc2ccc(F)nc2n1C(=O)OC)Cc1cc(Cl)cc(Cl)c1 in the same way.
[A] 7.02

[Q] Consider next the compound O=C(NCc1nc2ccccc2[nH]1)N[C@H](CO)Cc1ccc(Cl)cc1Cl in the same way.
[A] 5.03

[Q] Consider next the compound CC(Cc1nc2c(Cl)cc(Cl)cc2[nH]1)NCc1cc(Cl)cc(Cl)c1 (centres unmarked) in the same way.
[A] 5.34

[Q] Consider next the compound CC(C)Oc1c(Cl)cc(Cl)cc1CN[C@H]1CCCN(c2nc3nc(Cl)ccc3[nH]2)C1 in the same way.
[A] 5.77

[Q] Consider next the compound COc1cc(CN2CCC[C@H](c3nc4nc(Cl)ccc4[nH]3)C2)cc(OC)c1 in the same way.
[A] 5.08

[Q] Consider next the compound O=C(Cc1ccc(Cl)cc1Cl)NCc1nc2ncc(Cl)cc2[nH]1 in the same way.
[A] 5.12

[Q] Consider next the compound O=C(NCc1cc(Cl)cc(Cl)c1)NCc1nc2ccc(Cl)nc2[nH]1 in the same way.
[A] 5.68
